Hey, just so you know, these numbers are from patent US20110136787A1.

test system: Human Norepinephrine Transporter (hNET) (Homo sapiens)
Construct: expressed in transfected cells; host or cells: HEK-293 (Clone: HEK-hNET #2), membrane preparation
Sequence (P23975 whole entry): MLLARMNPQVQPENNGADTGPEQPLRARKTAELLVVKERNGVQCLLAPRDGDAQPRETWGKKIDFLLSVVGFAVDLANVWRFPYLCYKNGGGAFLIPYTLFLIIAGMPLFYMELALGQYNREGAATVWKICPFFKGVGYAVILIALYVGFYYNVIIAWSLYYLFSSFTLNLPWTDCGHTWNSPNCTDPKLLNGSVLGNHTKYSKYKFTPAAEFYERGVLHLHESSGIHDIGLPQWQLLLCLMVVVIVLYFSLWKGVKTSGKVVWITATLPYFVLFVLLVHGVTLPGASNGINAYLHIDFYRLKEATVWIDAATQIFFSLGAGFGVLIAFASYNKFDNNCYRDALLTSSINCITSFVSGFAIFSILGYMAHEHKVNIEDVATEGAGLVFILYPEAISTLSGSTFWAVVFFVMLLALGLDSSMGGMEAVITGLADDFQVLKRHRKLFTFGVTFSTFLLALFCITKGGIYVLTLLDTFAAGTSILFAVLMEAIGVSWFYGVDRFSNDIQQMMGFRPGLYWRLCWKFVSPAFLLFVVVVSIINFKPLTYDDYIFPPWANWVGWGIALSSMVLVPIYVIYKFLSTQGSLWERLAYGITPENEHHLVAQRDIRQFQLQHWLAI
procedure summary: hNET scintillation proximity assay (SPA), competition with [3H]-Nisoxetine
Assay type: binding
run conditions: pKi, membranes of HEK-293 cells expressing recombinant hNET, read-out: NET (converted)
readout name: Ki (nM)

INSERT INTO assay_data (compound, measured) VALUES
  ('c1ccc([C@H]2CCNCC[C@H]2c2ccccc2)cc1', 124),
  ('COc1ccccc1C1CNCCCN1c1ccccc1 (centres unmarked)', 2040),
  ('COc1ccccc1[C@@H]1OCCNC[C@@H]1c1ccccc1', 106),
  ('COc1ccccc1[C@H]1CCNCC[C@H]1c1ccccc1', 30.9),
  ('COc1ccccc1C1CCNCCN1c1ccccc1 (centres unmarked)', 422),
  ('c1ccc([C@H]2CCNCC[C@@H]2c2ccccc2)cc1', 741);

P. c1ccc([C@H]2CNCCO[C@H]2c2ccccc2)cc1 [Compound 6, (6S,7R)-6,7-Diphenyl-[1,4]oxazepane]
Q. c1ccc([C@H]2CCCNC[C@@H]2c2ccccc2)cc1
Param metric = Ki; output whichever of P , Q has the minimum value. Your choice should be expressed through its label.
Q
(Q: 77.2 nM, P: 417 nM)
